The origin of these recorded values is patent US20160176867A1.

Target: BRD4 bromo domain 2 [BRD4(2)] (Homo sapiens, UniProt O60885)
Construct: N-terminally His6-tagged BRD4(2) (amino acids 357-445)
Assay: BRD4/acetylated peptide H4 binding assay (TR-FRET), BRD4 bromo domain 2
Conditions: inhibition of BRD4(2)/Ac-H4 peptide interaction
Consider the following partition of reported IC50 into named classes: low = under 90 nM, intermediate = from 90 nM up to 200 nM, high = 200 nM and over

Class for `C[C@@H]1C(=O)N(C)c2ccc(Nc3cccc(C(=O)N[C@H]4CC[C@H](N5CCN(CC6CC6)CC5)CC4)c3)nc2N1C1CCOCC1` ?
intermediate

Into which category would you place `C[C@@H]1C(=O)N(C)c2ccc(Nc3cccc(C(=O)NC4CCN(C)CC4)c3)nc2N1C1CCCCC1` ?
high

Field: class (IC50) — entry: `Cc1ccc(Nc2ccc3c(n2)N(C2CCOCC2)[C@H](C)C(=O)N3C)cc1S(N)(=O)=O`
intermediate

Returns: class label. Input: `CCNS(=O)(=O)c1cccc(Nc2ccc3c(n2)N(C2CCOCC2)[C@H](C)C(=O)N3C)c1`
low

Returns: class label. Input: C[C@@H]1C(=O)N(C)c2ccc(Nc3cccc(C(=O)NC4CCN(C)CC4)c3)nc2N1c1ccc(F)cc1 (stereo in doubt)
high

For this compound, which bin applies? `C[C@@H]1C(=O)N(C)c2ccc(Nc3cccc(S(=O)(=O)N4CCOCC4)c3)nc2N1C1CCOCC1`
low
